tested on: prostate-specific antigen (PSA) mRNA; experiment: PSA mRNA levels in LMR20 cells; format: cell-based, human; conditions: LMR20 cells, no AR agonist, ASO 1.0 μM
Oligonucleotides are written 5' to 3', each unit as a sugar letter and its base; * is a phosphorothioate linkage, no mark a phosphodiester; rarer units and linkages stand in square brackets, end groups in braces. Plain capitals give the bases only. e = 2'-O-(2-methoxyethyl) (MOE); l = locked nucleic acid (LNA); k = constrained ethyl (cEt); [5mC] = 5-methylcytosine; d = 2'-deoxy (DNA)
assay-metric: PSA mRNA levels (% baseline value) of cells without AR agonist treatment
Don't forget the unit after the value.

Recorded PSA mRNA levels (% baseline value) of cells without AR agonist treatment, per entry:
Fill in: PSA mRNA levels (% baseline value) of cells without AR agonist treatment of 560131 (antisense kT*kT*kG*dA*dT*dT*dT*dA*dA*dT*dG*dG*kT*kT*kG*e[5mC]) [compound 560131] is ___ 75 % baseline value

Fill in: PSA mRNA levels (% baseline value) of cells without AR agonist treatment of 569236 (antisense eT*kG*kA*kT*dT*dT*dA*dA*dT*dG*dG*kT*kT*kG*e[5mC]*eA) [compound 569236] is ___ 78 % baseline value

Fill in: PSA mRNA levels (% baseline value) of cells without AR agonist treatment of 549458 (kG*kT*kT*dG*dA*dT*dT*dT*dA*dA*dT*dG*dG*kT*kT*kG) [compound 549458] is ___ 50 % baseline value

Continuing:
Fill in: PSA mRNA levels (% baseline value) of cells without AR agonist treatment of 554221 (ACCAAGTTTCTTCAGC; sugars from the 5' end l3 d10 l3, all phosphorothioate, methylation of C not given here) [compound 554221] is ___ 58 % baseline value

----------
System: AR mRNA
Test: Dose-dependent antisense inhibition of human AR in HuVEC cells (electroporation, qRT-PCR RTS3559, IC50)
Format: cell-based
Settings: Table 29; 187.5 nM, HuVEC, electroporation, approximately 16 hours
Protocol: After a treatment period of approximately 16 hours, RNA was isolated from the cells and AR mRNA levels were measured by quantitative real-time PCR. Human AR primer probe set RTS3559 was used to measure mRNA levels. AR mRNA levels were adjusted according to total RNA content, as measured by RIBOGREEN®. […] After a treatment period of approximately 16 hours, RNA was isolated from the cells and AR mRNA levels were measured by quantitative real-time PCR. […]
Oligonucleotides are written 5' to 3', each unit as a sugar letter and its base; * is a phosphorothioate linkage, no mark a phosphodiester; rarer units and linkages stand in square brackets, end groups in braces. Plain capitals give the bases only. k = constrained ethyl (cEt); [5mC] = 5-methylcytosine; d = 2'-deoxy (DNA)
assay-metric: percent inhibition of AR, 187.5 nM (%)
Reply numerically in %, unit not repeated.

Fill in: percent inhibition of AR, 187.5 nM of 583567 (antisense kG*k[5mC]*kA*d[5mC]*dT*dT*dT*d[5mC]*d[5mC]*dT*dT*dG*d[5mC]*kT*kT*k[5mC]) [compound 583567] is ___ 34

Fill in: percent inhibition of AR, 187.5 nM of 549372 (kA*kA*kG*dT*dT*dG*dT*dA*dG*dT*dA*dG*dT*k[5mC]*kG*k[5mC]) [compound 549372] is ___ 41

Fill in: percent inhibition of AR, 187.5 nM of 583556 (antisense kA*kA*k[5mC]*dT*dT*d[5mC]*dA*d[5mC]*d[5mC]*dG*dA*dA*dG*kA*kG*kG) [compound 583556] is ___ 47

Fill in: percent inhibition of AR, 187.5 nM of 583662 (antisense kA*kG*kA*dA*dG*dA*d[5mC]*dA*d[5mC]*dA*d[5mC]*dG*dG*kT*kG*kG) [compound 583662] is ___ 59

Fill in: percent inhibition of AR, 187.5 nM of 583559 (antisense kA*kG*kT*d[5mC]*dT*dT*dT*dA*dG*d[5mC]*dA*dG*d[5mC]*kT*kT*kT) [compound 583559] is ___ 49

Fill in: percent inhibition of AR, 187.5 nM of 583542 (antisense kA*k[5mC]*kA*dG*d[5mC]*dA*d[5mC]*dT*dG*dG*dA*dG*d[5mC]*kG*kG*k[5mC]) [compound 583542] is ___ 28

Fill in: percent inhibition of AR, 187.5 nM of 583566 (antisense k[5mC]*k[5mC]*kT*dT*dG*d[5mC]*dT*dT*d[5mC]*d[5mC]*dT*d[5mC]*d[5mC]*kG*kA*kG) [compound 583566] is ___ 28

Fill in: percent inhibition of AR, 187.5 nM of 583638 (antisense kT*kG*kA*dT*d[5mC]*dT*d[5mC]*dT*dG*dG*d[5mC]*dT*d[5mC]*k[5mC]*kG*k[5mC]) [compound 583638] is ___ 64

Fill in: percent inhibition of AR, 187.5 nM of 583583 (antisense kG*kA*k[5mC]*dT*dG*dA*dG*dG*d[5mC]*dA*dG*d[5mC]*dT*kG*k[5mC]*kG) [compound 583583] is ___ 31

Fill in: percent inhibition of AR, 187.5 nM of 583584 (antisense k[5mC]*k[5mC]*kG*dA*d[5mC]*dT*dG*dA*dG*dG*d[5mC]*dA*dG*k[5mC]*kT*kG) [compound 583584] is ___ 44

Continuing:
Fill in: percent inhibition of AR, 187.5 nM of 583608 (antisense kG*k[5mC]*kT*dA*dG*d[5mC]*dT*d[5mC]*dG*d[5mC]*d[5mC]*d[5mC]*dG*k[5mC]*kT*k[5mC]) [compound 583608] is ___ 46

Fill in: percent inhibition of AR, 187.5 nM of 583649 (antisense kA*kG*kG*d[5mC]*dT*d[5mC]*dA*d[5mC]*dA*dG*dT*d[5mC]*dT*kG*kT*k[5mC]) [compound 583649] is ___ 50

----------
system: AR mRNA; experiment: Dose-dependent antisense inhibition of human AR in HuVEC cells (electroporation, qRT-PCR RTS3559, IC50); assay type: cell-based; conditions: 166.7 nM; HuVEC, ~16 h; Table 4
Oligonucleotides are written 5' to 3', each unit as a sugar letter and its base; * is a phosphorothioate linkage, no mark a phosphodiester; rarer units and linkages stand in square brackets, end groups in braces. Plain capitals give the bases only. k = constrained ethyl (cEt); [5mC] = 5-methylcytosine; d = 2'-deoxy (DNA)
percent inhibition of AR: recorded values
Reply numerically in %, unit not repeated.

Recorded percent inhibition of AR, per entry:
Fill in: percent inhibition of AR of 549414 (kG*kT*kT*d[5mC]*dA*dT*dT*d[5mC]*dG*dA*dA*dG*dT*kT*k[5mC]*kA) [compound 549414] is ___ 35

Fill in: percent inhibition of AR of 549332 (kG*k[5mC]*kG*d[5mC]*dT*d[5mC]*dT*dG*dA*d[5mC]*dA*dG*d[5mC]*k[5mC]*kT*k[5mC]; antisense) [compound 549332] is ___ 57

Continuing:
Fill in: percent inhibition of AR of 549334 (k[5mC]*kA*k[5mC]*d[5mC]*dT*dG*d[5mC]*dG*dG*dG*dA*dA*dG*k[5mC]*kT*k[5mC]; antisense) [compound 549334] is ___ 46

Fill in: percent inhibition of AR of 549459 (kA*kT*kG*dG*dT*dT*dG*dA*dT*dT*dT*dA*dA*kT*kG*kG) [compound 549459] is ___ 90

Fill in: percent inhibition of AR of 549347 (k[5mC]*kT*kT*d[5mC]*dG*d[5mC]*dG*d[5mC]*dA*d[5mC]*dG*d[5mC]*dT*k[5mC]*kT*kG; antisense) [compound 549347] is ___ 37

----------
settings: cynomolgus monkey, in vivo, sc, 40 mg/kg
assay-metric: Plasma Creatinine
Don't forget the unit after the value.

Fill in: Plasma Creatinine of ISIS 584163: antisense compound targeted to human AR (GAACATTATTAGGCTA; 3-10-3 (S)-cEt gapmer, further chemistry not given here) is ___ 0.82 mg/dL

Fill in: Plasma Creatinine of TGATTTAATGGTTGCA [ISIS 569213] (cEt/MOE gapmer chemistry, further chemistry not given here) is ___ 0.91 mg/dL

Fill in: Plasma Creatinine of TTGATTTAATGGTTGC [ISIS 560131] (MOE and (S)-cEt gapmer chemistry, further chemistry not given here) is ___ 0.84 mg/dL

Now look at this one.
Fill in: Plasma Creatinine of TGATTTAATGGTTGCA [ISIS 569216] (cEt/MOE gapmer chemistry, further chemistry not given here) is ___ 0.81 mg/dL
